# Target entity: CB1 receptor (Homo sapiens)
# Sequence (P21554 whole entry): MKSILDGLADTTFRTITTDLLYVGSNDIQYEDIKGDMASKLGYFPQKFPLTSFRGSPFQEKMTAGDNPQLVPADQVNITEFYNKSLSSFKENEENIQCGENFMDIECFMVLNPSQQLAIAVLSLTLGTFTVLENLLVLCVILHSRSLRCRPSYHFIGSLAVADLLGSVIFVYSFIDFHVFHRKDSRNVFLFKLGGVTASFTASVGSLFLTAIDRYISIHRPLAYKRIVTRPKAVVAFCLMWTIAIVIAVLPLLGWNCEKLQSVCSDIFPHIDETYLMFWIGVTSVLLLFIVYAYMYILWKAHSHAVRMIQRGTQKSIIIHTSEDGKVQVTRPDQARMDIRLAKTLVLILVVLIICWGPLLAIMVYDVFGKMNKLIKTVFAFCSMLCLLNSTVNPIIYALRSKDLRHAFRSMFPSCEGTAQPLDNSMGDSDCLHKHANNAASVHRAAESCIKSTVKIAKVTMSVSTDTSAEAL
# Assay procedure: CB1 cAMP Antagonist Assay (LANCE Ultra cAMP kit)
# Measurement parameters: Flp-In CHO cells stably expressing the CB1 receptor; forskolin and CP55940 agonist at EC90; cAMP FRET readout
Parameter: IC50

> print(dat)
                                   molecule  parameter  test.value
1  COC(=O)c1ccc(Cn2nc(N3CC(c4ccccc4)C(c4ccc(Cl)cc4)=N3)n(C)c2=O)cc1 (centres unmarked)       IC50    < 0.1 µM
2  CN1CCN(Cc2ccc(Cn3nc(N4C[C@H](c5ccccc5)C(c5ccc(Cl)cc5)=N4)n(CC(N)=O)c3=O)cc2)CC1       IC50      > 5 µM
3  Cc1ccc(Cn2nc(N3CC(c4ccccc4)C(c4ccc(Cl)cc4)=N3)n(C)c2=O)cc1F (centres unmarked)       IC50    < 0.1 µM
4  Cc1cc(Cn2nc(N3CC(c4ccccc4)C(c4ccc(Cl)cc4)=N3)n(C)c2=O)ccc1Cl (centres unmarked)       IC50    < 0.1 µM
5  NC(=O)Cn1c(N2C[C@@]3(CCc4ccccc43)C(c3ccc(Cl)cc3)=N2)nn(CC2CCCCC2)c1=O       IC50   1 to 5 µM

Problem: Find the measured IC50 of `NC(=O)Cn1c(N2C[C@]3(CCc4ccccc43)C(c3ccc(Cl)cc3)=N2)nn(Cc2ccc(Cl)cc2)c1=O` and report it.
Result: 0.1 to 1 µM
